system: ACHN renal; experiment: NCI-60 one-dose screen, 48 h (100 = growth as untreated, 0 = no growth, -100 = all killed); details: 10 µM unless noted
Compounds without any hit were thinned out: in the full panel of roughly 83,000, 20% have a hit.
Provide the recorded growth for the entries that follow.
Numeric only. Scale: %

What does the data say about its growth? Entry: `COc1ccc(C(=O)N=Nc2c(O)n(C)c3ccccc23)cc1`
91.4

What does the data say about its growth? Entry: `CCCCCCNC(=O)Oc1ccc(/C(=C(\C)c2ccc(Cl)cc2)c2ccc(OCCN3CCCCC3)cc2)cc1`
76.3

What does the data say about its growth? Entry: `N#Cc1ccc(NC(=O)c2sc3nc4c(cc3c2N)C(=O)CCC4)cc1`
108

What does the data say about its growth? Entry: `O=C(CSc1nccc(Nc2ccc(S(=O)(=O)Nc3nccs3)cc2)n1)c1ccc(C(F)(F)F)cc1`
100

What does the data say about its growth? Entry: `CCCCCCNC(=O)Oc1ccc(/C(=C(\C)c2ccc(Cl)cc2)c2ccc(OCCCN(C)C)cc2)cc1`
94.3

What does the data say about its growth? Entry: `Cc1onc2c(-c3ccccc3)n[nH]c(=O)c12`
107

What does the data say about its growth? Entry: `Cc1cc(=O)oc2cc(OC(=O)N3CCN(C)CC3)ccc12`
96.6

What does the data say about its growth? Entry: `Oc1ccc(CCl)c2cccnc12`
64.1

What does the data say about its growth? Entry: CCOC(=O)C1=C(N)Oc2c(sc3c(CC)cccc23)C1c1ccc(F)cc1 (stereo not given)
34.1

What does the data say about its growth? Entry: `COc1ccc(CNC(=O)[C@H](O)[C@@H](N)Cc2ccccc2)cc1`
107
